Biological target: Human D1 (Homo sapiens, UniProt P21728)
Sequence (P21728 whole entry): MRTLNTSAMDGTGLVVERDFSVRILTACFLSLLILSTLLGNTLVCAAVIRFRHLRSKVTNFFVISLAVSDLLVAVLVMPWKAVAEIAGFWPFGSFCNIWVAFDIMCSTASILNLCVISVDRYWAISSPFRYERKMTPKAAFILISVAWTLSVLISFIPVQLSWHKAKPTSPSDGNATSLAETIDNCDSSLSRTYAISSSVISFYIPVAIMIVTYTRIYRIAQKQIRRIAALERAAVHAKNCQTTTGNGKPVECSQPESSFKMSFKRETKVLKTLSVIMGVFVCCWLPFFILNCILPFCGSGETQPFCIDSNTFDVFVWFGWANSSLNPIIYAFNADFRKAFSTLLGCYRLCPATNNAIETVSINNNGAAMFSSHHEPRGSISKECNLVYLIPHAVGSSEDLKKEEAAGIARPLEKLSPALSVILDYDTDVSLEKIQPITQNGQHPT
Test: Radioligand binding: Human D1
experimental.endpoint: Ki

[ask] Find the measured Ki: item COC(=O)N1CCC(CN2CCC(CNC(=O)c3cccc4[nH]c(C(C)C)nc34)CC2)CC1 , target or system Human D1 (Homo sapiens, UniProt P21728).
[reply] > 1000 nM

###

Target: Rat CRF1 (Rattus norvegicus, UniProt P35353)
Sequence (P35353 24-415): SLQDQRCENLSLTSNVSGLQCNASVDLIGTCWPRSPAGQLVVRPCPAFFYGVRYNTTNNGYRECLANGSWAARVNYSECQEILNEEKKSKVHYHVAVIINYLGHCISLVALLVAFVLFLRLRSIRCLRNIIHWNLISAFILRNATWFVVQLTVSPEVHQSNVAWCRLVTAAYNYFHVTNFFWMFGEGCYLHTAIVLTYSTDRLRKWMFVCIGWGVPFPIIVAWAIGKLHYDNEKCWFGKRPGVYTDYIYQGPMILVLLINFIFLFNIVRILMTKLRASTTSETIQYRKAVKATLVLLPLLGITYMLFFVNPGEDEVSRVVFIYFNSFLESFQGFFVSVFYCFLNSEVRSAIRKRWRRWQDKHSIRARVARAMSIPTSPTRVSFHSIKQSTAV
experimental.endpoint: Ki

[ask] For the molecule COC(=O)N1CCC(CN2CCC(CNC(=O)c3cccc4[nH]c(C(C)C)nc34)CC2)CC1 [TD-8954] , what Ki is on record?
[reply] > 1000 nM

###

Target: Human acetylcholinesterase (Homo sapiens, UniProt P22303)
Sequence (P22303 32-614): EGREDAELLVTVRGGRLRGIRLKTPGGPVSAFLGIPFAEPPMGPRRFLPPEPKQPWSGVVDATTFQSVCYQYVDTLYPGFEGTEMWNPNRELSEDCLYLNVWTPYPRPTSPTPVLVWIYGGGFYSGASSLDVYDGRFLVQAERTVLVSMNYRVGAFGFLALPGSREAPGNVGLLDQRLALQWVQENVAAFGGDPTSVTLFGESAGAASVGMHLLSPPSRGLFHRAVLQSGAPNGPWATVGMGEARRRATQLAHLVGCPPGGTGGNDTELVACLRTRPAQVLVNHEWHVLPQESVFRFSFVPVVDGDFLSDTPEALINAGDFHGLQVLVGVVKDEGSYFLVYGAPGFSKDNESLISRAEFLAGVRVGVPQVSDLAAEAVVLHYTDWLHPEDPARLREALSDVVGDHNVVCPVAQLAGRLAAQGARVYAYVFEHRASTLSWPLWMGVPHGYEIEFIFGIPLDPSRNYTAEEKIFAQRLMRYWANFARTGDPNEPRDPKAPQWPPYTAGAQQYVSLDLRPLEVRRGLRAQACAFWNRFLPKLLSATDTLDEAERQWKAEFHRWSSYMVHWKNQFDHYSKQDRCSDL
experimental.endpoint: IC50

[ask] Find the measured IC50: item COC(=O)N1CCC(CN2CCC(CNC(=O)c3cccc4[nH]c(C(C)C)nc34)CC2)CC1 [TD-8954] , target or system Human acetylcholinesterase (Homo sapiens, UniProt P22303).
[reply] > 1000 nM

###

Molecular target: Human CCK2 (CCKB) (Homo sapiens, UniProt P32239)
Sequence (P32239 whole entry): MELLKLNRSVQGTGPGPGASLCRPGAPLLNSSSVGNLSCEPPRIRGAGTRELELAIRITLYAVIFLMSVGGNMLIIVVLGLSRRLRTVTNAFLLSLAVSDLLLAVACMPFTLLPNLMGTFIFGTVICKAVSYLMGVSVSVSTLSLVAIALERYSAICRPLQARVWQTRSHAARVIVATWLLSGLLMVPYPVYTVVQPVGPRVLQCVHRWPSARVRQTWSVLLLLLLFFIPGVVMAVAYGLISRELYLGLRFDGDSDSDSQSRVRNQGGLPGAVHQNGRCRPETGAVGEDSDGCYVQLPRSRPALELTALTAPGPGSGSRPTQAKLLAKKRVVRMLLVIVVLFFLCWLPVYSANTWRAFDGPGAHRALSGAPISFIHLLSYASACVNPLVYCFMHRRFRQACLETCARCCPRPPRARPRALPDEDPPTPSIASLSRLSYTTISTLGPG
experimental.endpoint: Ki

[ask] For the compound COC(=O)N1CCC(CN2CCC(CNC(=O)c3cccc4[nH]c(C(C)C)nc34)CC2)CC1 [TD-8954] , what Ki is on record?
[reply] > 1000 nM

###

Molecular target: Human A1 (Homo sapiens, UniProt P30542)
Sequence (P30542 1-326): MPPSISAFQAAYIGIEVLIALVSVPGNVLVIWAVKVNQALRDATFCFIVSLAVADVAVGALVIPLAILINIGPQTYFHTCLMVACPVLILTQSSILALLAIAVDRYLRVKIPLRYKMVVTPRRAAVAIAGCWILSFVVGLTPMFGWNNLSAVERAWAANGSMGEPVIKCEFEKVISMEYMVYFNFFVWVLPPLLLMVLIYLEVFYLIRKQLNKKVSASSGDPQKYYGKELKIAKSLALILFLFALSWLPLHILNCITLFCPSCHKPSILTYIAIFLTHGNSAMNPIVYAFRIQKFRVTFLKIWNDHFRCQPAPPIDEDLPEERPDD
experimental.endpoint: Ki

[ask] For the molecule COC(=O)N1CCC(CN2CCC(CNC(=O)c3cccc4[nH]c(C(C)C)nc34)CC2)CC1 , what Ki is on record?
[reply] > 1000 nM

###

Target: Human 5-HT transporter (Homo sapiens, UniProt P31645)
Sequence (P31645 whole entry): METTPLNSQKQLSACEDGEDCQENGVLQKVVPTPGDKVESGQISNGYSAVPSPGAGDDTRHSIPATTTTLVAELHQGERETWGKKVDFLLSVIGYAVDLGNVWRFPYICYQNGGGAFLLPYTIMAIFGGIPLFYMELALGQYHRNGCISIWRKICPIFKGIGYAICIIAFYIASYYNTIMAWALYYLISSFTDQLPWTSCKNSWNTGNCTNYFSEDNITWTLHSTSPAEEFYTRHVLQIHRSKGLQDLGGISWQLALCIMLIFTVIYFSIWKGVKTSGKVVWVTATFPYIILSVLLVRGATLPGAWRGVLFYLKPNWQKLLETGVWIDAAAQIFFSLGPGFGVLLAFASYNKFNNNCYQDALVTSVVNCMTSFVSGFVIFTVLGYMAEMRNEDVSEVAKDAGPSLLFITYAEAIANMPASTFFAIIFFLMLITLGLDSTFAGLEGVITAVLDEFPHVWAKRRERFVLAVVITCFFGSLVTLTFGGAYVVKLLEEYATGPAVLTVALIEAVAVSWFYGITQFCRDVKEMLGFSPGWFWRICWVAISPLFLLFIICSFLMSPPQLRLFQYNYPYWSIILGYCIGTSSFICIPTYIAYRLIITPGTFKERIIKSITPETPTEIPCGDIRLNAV
experimental.endpoint: Ki

[ask] Find the measured Ki: item COC(=O)N1CCC(CN2CCC(CNC(=O)c3cccc4[nH]c(C(C)C)nc34)CC2)CC1 , target or system Human 5-HT transporter (Homo sapiens, UniProt P31645).
[reply] > 1 µM
